testedSystem: T1, SARS-CoV-2 RBD-mFc (SARS-CoV-2, UniProt P0DTC2 319-541)
T1 construct: range 319-541
testDescription: competition ELISA: RBD-mFc on coated ACE2-His
reportedEndpoint: IC50 (nM)
Lab book: enter the figure in nM, no units written.

SA4043 (antibody, V domains shown) VH: QVQLQESGGGLVQPGGSLRLSCAASVITVSSNYMSWVRQAPGKGLEWVSVIYPGGSTYYADSVKGRFTISRDKSKNTLYLQMNSLRAEDTAVYYCARDLDIVGGMDVWGQGTTVTVSS VL: DIQMTQSPSTLSASVGDRVTITCRASQSISRWLAWYQQKPGQAPKLLIYAASTLQSGVPSRFSGSGSGTEFTLTISSLQPDDFATYYCQQYDSYPRTFGQGTKVDIK	1.76

In the following, a different binder is considered.
[in] For SA4056 (antibody, V domains shown) VH: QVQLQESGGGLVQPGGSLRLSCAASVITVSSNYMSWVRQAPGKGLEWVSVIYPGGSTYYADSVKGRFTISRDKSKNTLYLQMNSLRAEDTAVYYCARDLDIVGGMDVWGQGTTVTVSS VL: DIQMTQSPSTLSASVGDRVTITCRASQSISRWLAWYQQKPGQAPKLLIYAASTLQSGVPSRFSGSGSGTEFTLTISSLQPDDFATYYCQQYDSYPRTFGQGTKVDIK , write its IC50.
[out] 1.86
